src = patent US20260209325A1

biological target: T1, cyno pro-myostatin (cynomolgus monkey, Biotinylated for capture in the SPR assay (site not stated). The native form is a disulfide-linked homodimer, partly furin-cleaved; one chain is given.); experiment: SPR Biacore 8K, biotin-antigen captured
T1 construct: also called proGDF8 (cynomolgus); cynomolgus monkey pro-myostatin
Parameter Measured: kon (M⁻¹ s⁻¹)
Give the value in M⁻¹ s⁻¹ but do not write M⁻¹ s⁻¹ after it.

Worked examples follow.
Ab127 (antibody, human IgG4 S228P, kappa, V domains shown) VH: EVQLVESGGGLVQPGGSLRLSCTASGFTFGSYPMDWVRQAPGKGLEWVSYISGRGDVTYYADSVKGRFTISRDNAKNTLYLQMNSLRAEDTAVYYCAKVQSPSELLWFGELLPVDYWGQGTLVTVSS VL: DIQMTQSPSSLSASVGDRVTITCQASQVIKTWLNWYQQKPGKAPKLLIYDASNLQRGVPSRFSGSGSGTDFTFTISSLQPEDIATYYCQQSASTPITFGGGTKVEIKR ... 821000
Ab105 (antibody, human IgG4 S228P, kappa, V domains shown) VH: EVQLVESGGGLVQPGGSLRLSCAASGSAFSSYGMSWVRQAPGKGLELVASIGGTGATYYPDSVKGRFTISRDNAKNSLYLQMNSLRAEDTAVYYCARDLLVRFLEWGHYYGMDVWGQGTTVTVSS VL: DIVMTQSPLSLPVTPGEPASISCRSSQSLLHSSGYNFLHWYLQKPGQSPQLLIYAASSRAPGIPDRFSGSGSGTDFTLKISRVEAEDVGVYYCMHGGQGPTFGGGTKVEIKR ... 5.26e+06

// moving on: another record for kon
Per the record, Ab123 (antibody, human IgG4 S228P, kappa, V domains shown) VH: EVQLVESGGGLVQPGGSLRLSCAASGFTFSKYDMSWVRQAPGKGLELVASISSSGGTRYYPDSVKGRFTISRDNAKNSLYLQMNSLRAEDTAVYYCAKDLWVASPGYGMDVWGQGTTVTVSS VL: DIVMTQSPLSLPVTPGEPASISCRSSQSLLHSSGHNYLHWYLQKPGQSPQLLIYLGSIRAPGVPDRFSGSGSGTDFTLKISRVEAEDVGVYYCMQALLNPPTFGGGTKVEIKR has kon of 1.59e+06
